Assay: Solubility limited absorbable dose (SLAD) calculation with predicted human jejunal Peff
Conditions: Peff × tres/R; minimum 1
Lab note: compare An (absorption number) with 4, writing Y if less and N if equal or more.

Solved cases below.
- molecule: "[H]/N=C(\\N/C(=N/[H])Nc1ccc(Cl)cc1)NC(C)C [Proguanil]"
  labelClass: "Y"
- molecule: "CC1(C)CC(O)(COc2ccc(C3CCC4(CC3)OOC3(O4)C4CC5CC(C4)CC3C5)cc2)CC(C)(C)N1 (stereo not shown) [MMV052]"
  labelClass: "N"
- molecule: "CC(C)(C)NCc1cc(C(C)(C)C)cc(-c2cnc(C(F)(F)F)c(F)c2)c1O [JPC3210]"
  labelClass: "N"

# evaluate next
Field: below-cutoff. Rule: recorded An (absorption number) strictly less than 4. Subject: COc1ccc2nc3cc(Cl)ccc3c(Nc3cc(CN4CCCC4)c(O)c(CN4CCCC4)c3)c2n1 [Pyronaridine]
Y

* * *

Tested on: human liver microsomes
Assay: Binding to human liver microsomes via ultracentrifugation
Assay type: in vitro ADME
Conditions: 0.4 mg/mL protein
Assignment: determine reported Fraction unbound, HLM for the given compounds.

Here is how some compounds turned out for Fraction unbound, HLM.
- compound: "CCc1nc(N)nc(N)c1OCCCOc1ccccc1CCC(=O)O.Cl"
  Fraction unbound, HLM: "0.88 ± 0.041"
- compound: "CN(C)C[c-]1cccc1CNc1ccnc2cc(Cl)ccc12.[Fe+2].c1cc[cH-]c1 (centres unmarked)"
  Fraction unbound, HLM: "0.27 ± 0.032"
- compound: "CC(C)(C)NCc1cc(C(C)(C)C)cc(-c2cnc(C(F)(F)F)c(F)c2)c1O"
  Fraction unbound, HLM: "0.029 ± 0.0030"

List the reported Fraction unbound, HLM of each compound below.
1. CS(=O)(=O)O.FC1CCN(CCOc2ccc(C3CCC4(CC3)OOC3(OO4)C4CC5CC(C4)CC3C5)cc2)CC1 (centres unmarked)
2. CC(C)(C)NCc1cc(Nc2ccnc3cc(Cl)ccc23)c2c(c1O)CCCC2
3. CCN(CC)CCCNc1ccnc2cc(Cl)ccc12.Cl.Cl
4. COc1cc2[nH]c(C)c(-c3ccc(Oc4ccc(OC(F)(F)F)cc4)cc3)c(=O)c2cc1Cl
5. O=C(NCCN1CCCC1)c1cc(-c2ccc(CN3CCOCC3)cc2)nc2ccc(F)cc12

["0.0003 ± 0.000010", "0.21 ± 0.015", "0.66 ± 0.048", "0.002 ± 0.00010", "0.50 ± 0.041"]

* * *

Assay: Plasma protein binding via rapid equilibrium dialysis (RED), 10% plasma
Format: in vitro ADME, human
Settings: human, 10% pooled plasma (diluted 1:10), pH 7.4, RED, 10% plasma corrected for dilution, 6 h dialysis
Param threshold (0.06) applies to fraction unbound at 6 h; output y when value >= threshold, n when value < threshold.

Solved cases below.
- structureString: "C[C@H]1Cc2c([nH]c3cc(Cl)c(F)cc23)[C@@]2(N1)C(=O)Nc1ccc(Cl)cc12"
  labelClass: "n"
- structureString: "C[C@H]1c2cccc(O)c2C(=O)C2=C(O)[C@]3(O)C(=O)C(C(N)=O)=C(O)[C@@H](N(C)C)[C@@H]3[C@@H](O)[C@@H]21"
  labelClass: "y"
- structureString: "Cc1cc(Nc2ccc(S(F)(F)(F)(F)F)cc2)n2nc(C(C)(F)F)nc2n1"
  labelClass: "n"
- structureString: "CS(=O)(=O)c1ccc(-c2cnc(N)c(-c3ccc(C(F)(F)F)nc3)c2)cc1"
  labelClass: "y"
- structureString: "CC(C)(N)CNC(=O)C[C@H]1CC[C@]2(CC1)OO[C@]1(O2)C2CC3CC(C2)CC1C3"
  labelClass: "n"
- structureString: "COc1ncnc(NS(=O)(=O)c2ccc(N)cc2)c1OC"
  labelClass: "n"
- structureString: "COc1ccc2nc3cc(Cl)ccc3c(Nc3cc(CN4CCCC4)c(O)c(CN4CCCC4)c3)c2n1"
  labelClass: "y"

# evaluate next
Check if fraction unbound at 6 h >= 0.06 (inclusive). Item: CCc1nc(N)nc(N)c1-c1ccc(Cl)cc1
y

Every entry's value here was drawn from paper PMC6941357.
